Data credit: DBAASP

- Tested on: Pseudomonas aeruginosa
- experiment: ≥ marks a high value that may be exact or a test limit, other limits are often not marked, values filed in µg/mL are converted to µM
A collection of compounds and their measured MIC
Please give a number only; it is taken to be in µM.

Recorded results for 3 compounds are shown here.
INSERT INTO results (compound_structure_string, parameter, unit_of_measurement, reported_value) VALUES
  ('CC(C)[C@H](NC(=O)[C@H](Cc1cnc[nH]1)NC(=O)[C@H](C)NC(=O)[C@H](C)NC(=O)[C@H](CCCCN)NC(=O)[C@H](CCCCN)NC(=O)[C@H](Cc1ccccc1)NC(=O)[C@H](Cc1ccccc1)NC(=O)[C@H](CO)NC(=O)CNC(=O)[C@H](Cc1c[nH]c2ccccc12)NC(=O)CN)C(=O)NCC(=O)N[C@@H](CCCCN)C(=O)N[C@@H](Cc1cnc[nH]1)C(=O)N[C@H](C(=O)NCC(=O)N[C@@H](CCCCN)C(=O)N[C@@H](C)C(N)=O)C(C)C', 'MIC', 'µM', 28.3),
  ('CC[C@H](C)[C@H](NC(=O)[C@H](Cc1cnc[nH]1)NC(=O)[C@H](CCCCN)NC(=O)[C@H](CC(C)C)NC(=O)[C@H](Cc1ccccc1)NC(=O)[C@H](CO)NC(=O)[C@H](CCSC)NC(=O)[C@H](Cc1c[nH]c2ccccc12)NC(=O)[C@H](CCCCN)NC(=O)CN)C(=O)N[C@@H](CC(C)C)C(=O)N[C@@H](CCCCN)C(N)=O', 'MIC', 'µM', 21.8),
  ('CC[C@H](C)[C@H](NC(=O)[C@H](C)NC(=O)[C@H](CC(C)C)NC(=O)[C@H](CC(C)C)NC(=O)[C@H](Cc1c[nH]c2ccccc12)NC(=O)[C@H](C)N)C(=O)N[C@@H](CCCN=C(N)N)C(=O)N[C@@H](CCCCN)C(=O)N[C@@H](CCCN=C(N)N)C(N)=O', 'MIC', 'µM', 3.55);

query: Pseudomonas aeruginosa / MIC / `CC(C)C[C@H](NC(=O)[C@H](CC(C)C)NC(=O)[C@H](CCCCN)NC(=O)[C@H](CCCCN)NC(=O)[C@H](C)NC(=O)[C@H](CC(C)C)NC(=O)[C@H](CCCCN)NC(=O)[C@H](C)NC(=O)[C@H](CC(C)C)NC(=O)[C@H](CC(C)C)NC(=O)[C@H](CCCCN)NC(=O)[C@H](C)NC(=O)[C@@H](N)Cc1ccccc1)C(N)=O` : value?
result: 5.49

* * *

The next entries give measured MIC for Escherichia coli W160-37.
Please give a number only; it is taken to be in µM.

INSERT INTO assay_data (compound_structure_string, reported_value) VALUES
  ('CC[C@H](C)[C@H](N)C(=O)N[C@@H](CC(C)C)C(=O)N1CCC[C@H]1C(=O)N[C@@H](CC(C)C)C(=O)N[C@@H](CCCCN)C(=O)N[C@@H](CC(C)C)C(=O)N1CCC[C@H]1C(=O)N[C@@H](Cc1c[nH]c2ccccc12)C(=O)N[C@@H](CC(C)C)C(=O)N1CCC[C@H]1C(=O)N[C@@H](CC(C)C)C(=O)N[C@@H](CCCN=C(N)N)C(=O)N[C@@H](CCCN=C(N)N)C(N)=O', 12.4);

Now examine the next entry.
query: Return reported MIC; argument: `CC[C@H](C)[C@H](N)C(=O)N[C@@H](CC(C)C)C(=O)N[C@@H](C)C(=O)N[C@@H](Cc1c[nH]c2ccccc12)C(=O)N[C@@H](CCCCN)C(=O)N[C@@H](Cc1c[nH]c2ccccc12)C(=O)N[C@@H](C)C(=O)N[C@@H](Cc1c[nH]c2ccccc12)C(=O)N[C@@H](Cc1c[nH]c2ccccc12)C(=O)N[C@@H](C)C(=O)N[C@@H](Cc1c[nH]c2ccccc12)C(=O)N[C@@H](CCCN=C(N)N)C(=O)N[C@@H](CCCN=C(N)N)C(N)=O`
result: 12.2
